# TARGET_ENTITY: T1, purified recombinant MHC II protein, allele DRB1*1501 (human)
# T1 construct: bought from Benaroya Research Institute; also called MHC-II DR molecule
# ASSAY_PROTOCOL: MHC II competition binding assay
MEASURED_ATTRIBUTE: IC50

These solved cases illustrate the format of a correct answer.
BINDER	IC50
DYVKAGQQIGWSGSTGY (synthetic mutated peptide of the lysostaphin catalytic domain; also called I99Q) [cluster 4 peptide with Ile99Gln]	66100 nM
DYVEAGQIIGWSGSTGY (synthetic mutated peptide of the lysostaphin catalytic domain; also called K95E) [cluster 4 peptide with Lys95Glu]	< 10 nM
DHVKAGQIIGWSGSTGY (synthetic mutated peptide of the lysostaphin catalytic domain; also called Y93H) [cluster 4 peptide with Tyr93His]	< 10 nM
DHVKAGQQIGWSGSTGY (synthetic mutated peptide of the lysostaphin catalytic domain; also called 93_99) [cluster 4 peptide with Tyr93His/Ile99Gln]	< 10 nM
DYVKAGQIIGWSGSTGY [cluster 4 wild-type (C4WT) epitope peptide]	< 10 nM
DYVEAGQQIGWSGSTGY (synthetic mutated peptide of the lysostaphin catalytic domain; also called 95-99) [cluster 4 peptide with Lys95Glu/Ile99Gln]	< 10 nM

Then there is this binder:
Entry DHVEAGQIIGWSGSTGY (synthetic mutated peptide of the lysostaphin catalytic domain; also called 93_95) [cluster 4 peptide with Tyr93His/Lys95Glu] — recorded IC50 = 60 nM
